The reported measurements were obtained from patent US20100143349A1.

experimental system: T1, HU-RAGE-SA (human, UniProt Q15109 23-342)
T1 construct: extracellular domain; Directly immobilized on a CM5 chip (~100 RU); also called hRAGE-SA; soluble human streptavidin-tagged RAGE; not shown: streptavidin tag (SA)
T1 sequence (Q15109 23-342): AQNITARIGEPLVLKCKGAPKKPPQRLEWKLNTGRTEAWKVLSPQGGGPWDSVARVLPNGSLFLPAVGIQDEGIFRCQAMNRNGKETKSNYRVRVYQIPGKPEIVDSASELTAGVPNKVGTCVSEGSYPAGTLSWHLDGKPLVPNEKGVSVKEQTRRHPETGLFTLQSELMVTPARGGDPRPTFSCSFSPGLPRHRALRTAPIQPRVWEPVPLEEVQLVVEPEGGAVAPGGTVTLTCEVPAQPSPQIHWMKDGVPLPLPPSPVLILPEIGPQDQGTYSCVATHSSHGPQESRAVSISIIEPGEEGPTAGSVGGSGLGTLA
test method notes: BIAcore kd against parental M4 scFv-Fc
measured property: Fold change in kd (fold)
Give bare numbers, in fold.

Query: State the recorded Fold change in kd for this entry: 8G9 scFv-Fc fusion (Fc fusion, not shown: wild-type human IgG Fc (hinge and constant domains)) DIQMTQSPSSLSASVGDRVTITCRASQDVGIYVNWFQQKPGKAPRRLIYRATNLADGVPSRFSGSRSGTDFTLTISSLQPEDFATYYCLEFDEHPLTFGGGTKVEIKDGGGSGGGGSGGGGSSEVQLVESGGGLVQPGSSLRLSCAASGFTFNNYWMTWVRQAPGKGLEWVASIDNSGDNTYYPDSVKDRFTISRDNAKNSLYLQMNSLRAEDTAVYYCARGGDITTGLDYWGQGTLVTVSS
Result: 3.9

--- query ---
Query: Report Fold change in kd for 6G4 scFv-Fc fusion (Fc fusion, Assayed separately; fold gain against the M4 value of the ribosome display set; not shown: wild-type human IgG Fc (hinge and constant domains)) DIQMTQSPSSLSASVGDRVTITCRASQDVGIYVNWFQQKPGKAPRRLIYRATNLADGVPSRFSGSRSGTDFTLTISSLQPEDFATYYCLEFDEHPLTFGGGTKVEIKDGGGSGGGGSGGGGSSEVQLVESGGGLVQPGGSLRLSCAASGFTFNNYWMTWVRQAPGKGLEWVASIDNSGDNTYYPDSVKDRFTISRDNAKNSLYLQMNSLRAEDTAVYYCARGGDILDSLHFWGQGTLVTVSS please.
Result: 7.6
